- System: DU-145
- assay_name: Cytotoxicity against Hh signaling abnormally activated human DU145 cells after 24 hrs by fluorometric microculture assay
- Format: functional, cell-based
- recorded_conditions: DU-145, 24 h
# key: entry, value: IC50

[
  {
    "smiles_code": "CC(C)=CCC/C(C)=C/Cc1c(CCC(=O)c2ccc(O)cc2O)ccc(O)c1O",
    "value_units": "µM",
    "IC50": 80.6
  },
  {
    "smiles_code": "CC1(C)CCC[C@]2(C)Oc3c(O)ccc(CCC(=O)c4ccc(O)cc4O)c3C[C@@H]12",
    "value_units": "µM",
    "IC50": 53.7
  },
  {
    "smiles_code": "C=C1C(=O)O[C@H]2/C=C(\\C)C[C@@H]3C=C(CC/C=C(\\C)CC[C@H]12)C(=O)O3",
    "value_units": "µM",
    "IC50": 32.6
  },
  {
    "smiles_code": "C=C1C(=O)O[C@H]2/C=C(\\C)C[C@@H]3C=C(C/C=C/[C@@](C)(OO)CC[C@H]12)C(=O)O3",
    "value_units": "µM",
    "IC50": 30.3
  },
  {
    "smiles_code": "C=C1C(=O)O[C@H]2/C=C(\\C)C[C@@H]3C=C(CC[C@@H](OO)C(=C)CC[C@H]12)C(=O)O3",
    "value_units": "µM",
    "IC50": 18.8
  }
]
